Where these numbers come from: the emibetuzumab library of Makowski et al. (2022)

B1: VH:VL chains; a variant is named by its letters at X, in order (parent)
chain 1: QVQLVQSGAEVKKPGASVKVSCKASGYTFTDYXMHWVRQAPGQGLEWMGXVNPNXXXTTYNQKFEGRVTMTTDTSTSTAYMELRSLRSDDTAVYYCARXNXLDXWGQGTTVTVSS
chain 2: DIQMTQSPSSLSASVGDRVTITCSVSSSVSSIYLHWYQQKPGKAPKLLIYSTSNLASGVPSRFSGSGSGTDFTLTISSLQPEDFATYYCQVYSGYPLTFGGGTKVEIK

Variants of: B1
Experiment notes: yeast display scFab, FACS + sequencing
Measurement context: with MET
Some of the results follow. The hit rate among all sequences tested is not known here.
Reported property: antigen binding call

[
  {
    "Mutation string": "YRAKGAWY",
    "Measured value": "binds"
  },
  {
    "Mutation string": "SKKRGSGA",
    "Measured value": "binds"
  },
  {
    "Mutation string": "YEKGGDVY",
    "Measured value": "no binding"
  },
  {
    "Mutation string": "VKGRADWY",
    "Measured value": "no binding"
  },
  {
    "Mutation string": "DKEGGDGA",
    "Measured value": "no binding"
  },
  {
    "Mutation string": "YRKGGAWY",
    "Measured value": "binds"
  },
  {
    "Mutation string": "SKAKGSGV",
    "Measured value": "binds"
  },
  {
    "Mutation string": "VKGRGFWY",
    "Measured value": "no binding"
  },
  {
    "Mutation string": "SKERGDGA",
    "Measured value": "no binding"
  },
  {
    "Mutation string": "SKTRGAGV",
    "Measured value": "no binding"
  },
  {
    "Mutation string": "SKAKGFGV",
    "Measured value": "no binding"
  },
  {
    "Mutation string": "DTKAAAGD",
    "Measured value": "no binding"
  }
]
